Target: T1, human GREM1 (hGREM1-His; SEQ ID NO: 595) (human, UniProt O60565 25-184)
T1 construct: also called biotin-hGREM1-His; recombinant human GREM1 protein
T1 sequence: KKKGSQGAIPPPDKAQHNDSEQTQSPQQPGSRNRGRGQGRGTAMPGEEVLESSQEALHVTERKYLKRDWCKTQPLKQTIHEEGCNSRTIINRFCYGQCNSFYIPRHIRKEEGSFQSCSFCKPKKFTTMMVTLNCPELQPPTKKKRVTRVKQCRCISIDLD
Experiment: SPR, Biacore T200, 37 C, mAb captured, hGREM1-His injected;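 further: HBS-EP running buffer containing heparin, association and dissociation phases tracked, KD computed as koff over kon and half-life derived from koff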
measure.name: kon (M⁻¹ s⁻¹)
Just the number in M⁻¹ s⁻¹, nothing appended.

H4H6256P (antibody, human IgG4, V domains shown, H4H prefix = human IgG4 Fc) VH: QVQLVESGGGVVQPGRSLRLSCAASGFTFSAYGMHWVRQGPGKGLEWVAVIWYDGSNKYYADSVKGRFTISRDNSKNTLYLQMNRLRAEDTAVYYCARDDYGDSPGFDHWGQGTLVTVSS VL: EIVMTQSPATLSVSPGERATLSCRASQSVSSELAWYQQKPGQAPRLLLYGASTRATGIPARFSGSGSGTEFTLTISSLQSEDFAVYYCQQYSNWPPWTFGQGTKVEIK | 114000

API: the following record is the query input.
Return reported kon; argument: H4H6248P (antibody, human IgG4, V domains shown, H4H prefix = human IgG4 Fc) VH: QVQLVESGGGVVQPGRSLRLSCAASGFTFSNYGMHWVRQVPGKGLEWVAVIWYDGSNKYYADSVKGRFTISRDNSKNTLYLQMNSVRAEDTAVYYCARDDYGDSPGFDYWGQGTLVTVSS VL: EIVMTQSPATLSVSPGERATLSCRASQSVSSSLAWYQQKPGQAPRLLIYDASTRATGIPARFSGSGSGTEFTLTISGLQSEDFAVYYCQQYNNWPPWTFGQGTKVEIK
85500
